test system: Wolbachia pipientis; experiment: Anti-Wolbachia Cell-Based Screen; assay type: functional; set-up: scale not given: in the data most compounds retested in dose-response had high values; conditions: 5 µM
Out of some 48,000 compounds screened, about 13,000 (27%) showed an effect of 50% or more. The list shows a part of the results.
Label scheme for Percent Effect: lower than 80% is no (0), 80% and above is yes (1).

| compound | target of assay | discrete label |
| --- | --- | --- |
| CCN1CCC(CC(=O)NCC(O)c2cccc(OC)c2)CC1 (configuration not stated) | Wolbachia pipientis | no (0) |
| Cc1occc1C(=O)N1CCn2cnc(COCC3CC3)c2C1 | Wolbachia pipientis | no (0) |
| COc1cccc(C(O)CNC(=O)CC2CCCCC2)c1 (configuration not stated) | Wolbachia pipientis | no (0) |
| Cc1cccc(C(=O)NC(CN2CCCC2=O)c2ccccc2)n1 (configuration not stated) | Wolbachia pipientis | no (0) |
| O=C(NCCCn1cccn1)N1CCCC1c1ccncc1 (configuration not stated) | Wolbachia pipientis | no (0) |
| CN1CCC(NCC(O)c2cccc(OCc3ccccc3)c2)CC1 (configuration not stated) | Wolbachia pipientis | yes (1) |
| Cc1cccc(C(=O)N2CCCn3cnc(CN4CCCC4=O)c3C2)n1 | Wolbachia pipientis | yes (1) |
| Cc1ccccc1C(=O)N1CCCn2nnc(Cn3cccn3)c2C1 | Wolbachia pipientis | no (0) |
| OC(CNC1CCSCC1)c1cccc(OCc2ccccc2)c1 (configuration not stated) | Wolbachia pipientis | yes (1) |
| Cc1occc1C(=O)N1CCCn2cnc(CN3CCCC3=O)c2C1 | Wolbachia pipientis | yes (1) |
| CO[C@@H](C(=O)NC1CCOCC1)c1ccccc1 | Wolbachia pipientis | no (0) |
| OC(CNC1CCOCC1)c1cccc(OCc2ccccc2)c1 (configuration not stated) | Wolbachia pipientis | yes (1) |

---

Parameter: Percent Effect. Scope: all listed entries.
tested on: Wolbachia pipientis; test: Anti-Wolbachia Cell-Based Screen; assay type: functional; design: scale not given: in the data most compounds retested in dose-response had high values; settings: 5 µM
Out of some 48,000 compounds screened, about 13,000 (27%) showed an effect of 50% or more. This is one part of the list.

| compound | target of assay | Percent Effect [%] |
| --- | --- | --- |
| O=C(NCCCF)Nc1ccc2nc(N3CCOCC3)oc2c1 | Wolbachia pipientis | 0.7918 |
| Cc1cnn(CC(C)NCc2csc(-c3cnn(C)c3)n2)c1 (stereo not drawn) | Wolbachia pipientis | 15.88 |
| CC(C)c1nc(CN(C)Cc2ncccc2C(=O)O)cs1 | Wolbachia pipientis | -6.183 |
| CN(C)C[C@@H]1C[C@@H]2CN(C(=O)Cc3cccs3)CC[C@@H]2N1C | Wolbachia pipientis | 87.94 |
| NC(=O)CN1CC[C@@]2(O)CCCC[C@H]2[C@@H]1c1ccc2c(c1)OCO2 | Wolbachia pipientis | 128.7 |
| NC(=O)CN1CCC(C(=O)NCc2ccc3c(c2)OCCCO3)CC1 | Wolbachia pipientis | -4.067 |
| Cc1nc(-c2ccc(S(=O)(=O)N3CCSC3)cc2)co1 | Wolbachia pipientis | -2.878 |
| COc1ccc(Cc2ncc3c(n2)CN(C(=O)CO)C3)cc1 | Wolbachia pipientis | -17.5 |
| CCN1CCCC(O)(CNCc2ccc3c(c2)OCO3)C1 (stereo not drawn) | Wolbachia pipientis | -9.558 |
| COc1ccc(F)c(-c2cc(O)nc(N)n2)c1 | Wolbachia pipientis | -16.24 |
| O=C1CN(Cc2cc(O)c3cccc(F)c3n2)CCN1C1CCCC1 | Wolbachia pipientis | -1.558 |
| Cn1cc(C(=O)N2CCCC2c2ccc3c(c2)OCO3)ccc1=O (stereo not drawn) | Wolbachia pipientis | 2.509 |
| COc1cccc(-c2n[nH]cc2CNCC2CCS(=O)(=O)C2)c1 (stereo not drawn) | Wolbachia pipientis | 9.215 |
| Cc1cnc(NCc2csc(C(C)C)n2)nc1-c1cnn(C)c1 | Wolbachia pipientis | 93.26 |
| CN(CCN1CCCC1=O)S(=O)(=O)CC1CCCC1 | Wolbachia pipientis | -3.28 |
| CC(=O)N1CCN(C[C@H]2CC[C@@H](Cc3ccc4c(c3)OCO4)O2)CC1 | Wolbachia pipientis | 6.248 |
| CC(=O)N1[C@H](CN(C)C)C[C@@H]2CN(C(=O)Cc3cccs3)CC[C@@H]21.O=C(O)C(F)(F)F | Wolbachia pipientis | 96.5 |
| CC(=O)N1CC[C@H]2NC(=O)N(Cc3ccccc3)C(=O)[C@H]21 | Wolbachia pipientis | 6.922 |
| Cc1cnc(NCC(C)(C)N2CCN(C)CC2)nc1 | Wolbachia pipientis | -0.3057 |
| CC(C)Oc1cc(N2CCCC(O)C2)nc(N)n1 (stereo not drawn) | Wolbachia pipientis | -24.67 |
| COC(=O)N1CC[C@@]2(O)CCCC[C@H]2[C@@H]1c1ccc2c(c1)OCO2 | Wolbachia pipientis | 122.6 |
| O=C(CN1CCCS(=O)(=O)CC1)NCc1ccccc1F | Wolbachia pipientis | -8.655 |
| CN1CCN(C(=O)N2CC[C@@](O)(c3ccccc3)[C@H]3CCCC[C@@H]32)CC1 | Wolbachia pipientis | -18.77 |
